Biological target: Sodium channel protein type 8 subunit alpha (Homo sapiens)
Assay: Activation of human Nav1.6 expressed in HEK293 cells assessed as ratio of compound activation AUC to baseline activation AUC at 3.3 uM at -120 mV holding potential by Qpatch assay
Type: cell-based
Non-standard residues stand in square brackets, D forms with d. Residues, ends and D or L forms follow the SMILES beside them. 1Nal = N[C@@H](Cc1cccc2ccccc12)C(=O)O; 2Nal = N[C@@H](Cc1ccc2ccccc2c1)C(=O)O
Readout Type: Ratio AUC
Numbers only.

compound="CC[C@H](C)[C@H](NC(=O)[C@H](CCCCN)NC(=O)[C@@H](NC(=O)[C@@H](N)CCCNC(=N)N)[C@@H](C)CC)C(=O)NCC(=O)N[C@@H](CC(C)C)C(=O)N[C@@H](Cc1cccc2ccccc12)C(=O)N[C@@H](CC(=O)O)C(=O)N[C@@H](CCC(N)=O)C(=O)N[C@@H](CC(C)C)C(=O)N[C@@H](CO)C(=O)N[C@@H](CCCNC(=N)N)C(=O)N[C@@H](CC(C)C)C(N)=O (H-RIKIGL[1Nal]DQLSRL-NH2)" assay_target="Sodium channel protein type 8 subunit alpha (Homo sapiens)" readout_type="Ratio AUC" result_number=3.1
compound="CC[C@H](C)[C@H](NC(=O)[C@H](CCCCN)NC(=O)[C@@H](NC(=O)[C@@H](N)CCCNC(=N)N)[C@@H](C)CC)C(=O)NCC(=O)N[C@@H](CC(C)C)C(=O)N[C@@H](Cc1ccc2ccccc2c1)C(=O)N[C@@H](CC(=O)O)C(=O)N[C@@H](CCC(N)=O)C(=O)N[C@@H](CC(C)C)C(=O)N[C@@H](CO)C(=O)N[C@@H](CCCNC(=N)N)C(=O)N[C@@H](CC(C)C)C(N)=O (H-RIKIGL[2Nal]DQLSRL-NH2)" assay_target="Sodium channel protein type 8 subunit alpha (Homo sapiens)" readout_type="Ratio AUC" result_number=6.7
compound="CC[C@H](C)[C@H](NC(=O)[C@H](CCCNC(=N)N)NC(=O)[C@@H](NC(=O)[C@@H](N)CCCNC(=N)N)[C@@H](C)CC)C(=O)NCC(=O)N[C@@H](CC(C)C)C(=O)N[C@@H](Cc1ccc2ccccc2c1)C(=O)N[C@@H](CC(=O)O)C(=O)N[C@@H](CCC(N)=O)C(=O)N[C@@H](CC(C)C)C(=O)N[C@@H](CC(C)C)C(=O)N[C@@H](CCCNC(=N)N)C(=O)N[C@@H](CC(C)C)C(N)=O (H-RIRIGL[2Nal]DQLLRL-NH2)" assay_target="Sodium channel protein type 8 subunit alpha (Homo sapiens)" readout_type="Ratio AUC" result_number=8.1

Next compound, please.
Problem: Supply reported Ratio AUC belonging to this compound: CC[C@H](C)[C@H](NC(=O)[C@H](CCCCN)NC(=O)[C@@H](NC(=O)[C@@H](N)CCCNC(=N)N)[C@@H](C)CC)C(=O)NCC(=O)N[C@@H](CC(C)C)C(=O)N[C@@H](Cc1ccccc1)C(=O)N[C@@H](CC(=O)O)C(=O)N[C@@H](CCC(N)=O)C(=O)N[C@@H](CC(C)C)C(=O)N[C@@H](CO)C(=O)N[C@@H](CCCNC(=N)N)C(=O)N[C@@H](CC(C)C)C(N)=O (H-RIKIGLFDQLSRL-NH2)
Solution: 1.3

----------
I'd be grateful if you could share measured Ratio AUC for these entries.
Target: Sodium channel protein type 4 subunit alpha (Homo sapiens) (UniProt P35499)
Sequence (P35499 whole entry, looked up): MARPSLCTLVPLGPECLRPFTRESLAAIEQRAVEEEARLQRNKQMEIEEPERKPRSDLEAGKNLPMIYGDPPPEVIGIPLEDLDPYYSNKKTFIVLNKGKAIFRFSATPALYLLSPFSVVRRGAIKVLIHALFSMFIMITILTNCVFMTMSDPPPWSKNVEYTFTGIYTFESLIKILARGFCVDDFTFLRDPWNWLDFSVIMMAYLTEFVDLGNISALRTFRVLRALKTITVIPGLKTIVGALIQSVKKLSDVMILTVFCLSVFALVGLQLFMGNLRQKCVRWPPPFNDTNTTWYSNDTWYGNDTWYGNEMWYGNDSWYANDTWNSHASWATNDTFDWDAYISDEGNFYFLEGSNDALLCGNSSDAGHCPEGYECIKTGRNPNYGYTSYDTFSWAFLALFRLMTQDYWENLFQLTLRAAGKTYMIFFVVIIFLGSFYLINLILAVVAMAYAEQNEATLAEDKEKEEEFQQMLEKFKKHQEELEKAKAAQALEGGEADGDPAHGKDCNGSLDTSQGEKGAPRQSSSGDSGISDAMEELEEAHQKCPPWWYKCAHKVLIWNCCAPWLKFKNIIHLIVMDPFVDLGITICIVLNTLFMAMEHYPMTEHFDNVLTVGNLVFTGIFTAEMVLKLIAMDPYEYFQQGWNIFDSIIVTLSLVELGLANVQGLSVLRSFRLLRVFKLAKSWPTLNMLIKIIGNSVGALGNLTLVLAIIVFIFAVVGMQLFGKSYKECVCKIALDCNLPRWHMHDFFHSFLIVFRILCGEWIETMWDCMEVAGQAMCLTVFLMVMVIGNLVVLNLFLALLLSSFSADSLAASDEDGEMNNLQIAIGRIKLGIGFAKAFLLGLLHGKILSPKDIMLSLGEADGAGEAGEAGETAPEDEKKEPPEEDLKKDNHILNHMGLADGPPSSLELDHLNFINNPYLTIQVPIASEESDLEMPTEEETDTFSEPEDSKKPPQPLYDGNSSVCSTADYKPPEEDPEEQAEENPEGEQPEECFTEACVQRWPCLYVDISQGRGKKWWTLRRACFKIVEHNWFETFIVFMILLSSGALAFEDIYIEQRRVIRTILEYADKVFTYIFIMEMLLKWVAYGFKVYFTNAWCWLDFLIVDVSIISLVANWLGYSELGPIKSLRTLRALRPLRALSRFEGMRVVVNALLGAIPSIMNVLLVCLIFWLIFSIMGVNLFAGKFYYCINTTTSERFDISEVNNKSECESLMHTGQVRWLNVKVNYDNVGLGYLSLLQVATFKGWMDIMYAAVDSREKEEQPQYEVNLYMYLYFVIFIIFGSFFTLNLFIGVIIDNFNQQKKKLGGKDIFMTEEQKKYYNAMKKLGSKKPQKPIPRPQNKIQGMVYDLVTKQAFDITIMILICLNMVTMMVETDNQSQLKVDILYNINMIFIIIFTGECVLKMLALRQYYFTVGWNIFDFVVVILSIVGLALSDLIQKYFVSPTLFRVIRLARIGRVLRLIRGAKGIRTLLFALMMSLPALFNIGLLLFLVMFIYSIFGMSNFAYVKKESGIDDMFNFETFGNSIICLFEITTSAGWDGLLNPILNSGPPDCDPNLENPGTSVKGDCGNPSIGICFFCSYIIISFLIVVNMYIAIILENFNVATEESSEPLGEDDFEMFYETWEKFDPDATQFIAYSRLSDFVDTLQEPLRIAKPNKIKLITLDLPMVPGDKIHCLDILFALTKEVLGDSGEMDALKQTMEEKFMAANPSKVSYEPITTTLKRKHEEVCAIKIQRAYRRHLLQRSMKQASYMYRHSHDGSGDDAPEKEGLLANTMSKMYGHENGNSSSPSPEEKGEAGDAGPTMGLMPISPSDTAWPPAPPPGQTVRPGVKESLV
Experiment: Activation of human Nav1.4 expressed in HEK293 cells assessed as ratio of compound activation AUC to baseline activation AUC at 3.3 uM at -120 mV holding potential by Qpatch assay
Format: cell-based
Non-standard residues stand in square brackets, D forms with d. Residues, ends and D or L forms follow the SMILES beside them. 1Nal = N[C@@H](Cc1cccc2ccccc12)C(=O)O; 2Nal = N[C@@H](Cc1ccc2ccccc2c1)C(=O)O
Answers are plain numbers.

Please review the following examples before continuing.
molecule="CC[C@H](C)[C@H](NC(=O)[C@H](CCCCN)NC(=O)[C@@H](NC(=O)[C@@H](N)CCCNC(=N)N)[C@@H](C)CC)C(=O)NCC(=O)N[C@@H](CC(C)C)C(=O)N[C@@H](Cc1ccccc1)C(=O)N[C@@H](CC(=O)O)C(=O)N[C@@H](CCC(N)=O)C(=O)N[C@@H](CC(C)C)C(=O)N[C@@H](CO)C(=O)N[C@@H](CCCNC(=N)N)C(=O)N[C@@H](CC(C)C)C(N)=O (H-RIKIGLFDQLSRL-NH2)" result_number=0.8
molecule="CC[C@H](C)[C@H](NC(=O)[C@H](CCCCN)NC(=O)[C@@H](NC(=O)[C@@H](N)CCCNC(=N)N)[C@@H](C)CC)C(=O)NCC(=O)N[C@@H](CC(C)C)C(=O)N[C@@H](Cc1cccc2ccccc12)C(=O)N[C@@H](CC(=O)O)C(=O)N[C@@H](CCC(N)=O)C(=O)N[C@@H](CC(C)C)C(=O)N[C@@H](CO)C(=O)N[C@@H](CCCNC(=N)N)C(=O)N[C@@H](CC(C)C)C(N)=O (H-RIKIGL[1Nal]DQLSRL-NH2)" result_number=1.4
molecule="CC[C@H](C)[C@H](NC(=O)[C@H](CCCCN)NC(=O)[C@@H](NC(=O)[C@@H](N)CCCNC(=N)N)[C@@H](C)CC)C(=O)NCC(=O)N[C@@H](CC(C)C)C(=O)N[C@@H](Cc1ccc2ccccc2c1)C(=O)N[C@@H](CC(=O)O)C(=O)N[C@@H](CCC(N)=O)C(=O)N[C@@H](CC(C)C)C(=O)N[C@@H](CO)C(=O)N[C@@H](CCCNC(=N)N)C(=O)N[C@@H](CC(C)C)C(N)=O (H-RIKIGL[2Nal]DQLSRL-NH2)" result_number=1.6

Next molecule, please.
Problem: Supply reported Ratio AUC belonging to this molecule: CC[C@H](C)[C@H](NC(=O)[C@H](CCCNC(=N)N)NC(=O)[C@@H](NC(=O)[C@@H](N)CCCNC(=N)N)[C@@H](C)CC)C(=O)NCC(=O)N[C@@H](CC(C)C)C(=O)N[C@@H](Cc1ccc2ccccc2c1)C(=O)N[C@@H](CC(=O)O)C(=O)N[C@@H](CCC(N)=O)C(=O)N[C@@H](CC(C)C)C(=O)N[C@@H](CC(C)C)C(=O)N[C@@H](CCCNC(=N)N)C(=O)N[C@@H](CC(C)C)C(N)=O (H-RIRIGL[2Nal]DQLLRL-NH2)
Solution: 1.6

----------
Molecular target: Sodium channel protein type 1 subunit alpha (Homo sapiens)
Assay: Activation of human Nav1.1 expressed in HEK293 cells assessed as ratio of compound activation AUC to baseline activation AUC at 0.12 uM at -120 mV holding potential by Qpatch assay
Format: cell-based
Positions of bridges follow the written chain, without caps; N, C: chain ends. Non-standard residues stand in square brackets, D forms with d. Residues, ends and D or L forms follow the SMILES beside them. 2Nal = N[C@@H](Cc1ccc2ccccc2c1)C(=O)O
I'd be grateful if you could share measured Ratio AUC for these entries.
Give bare numbers.

Please review the following examples before continuing.
molecule="CC[C@H](C)[C@@H]1NC(=O)[C@@H](NC(=O)[C@@H](NC(=O)[C@@H](N)CCCNC(=N)N)[C@@H](C)CC)CSSC[C@@H](C(=O)N[C@@H](CCC(N)=O)C(=O)N[C@@H](CC(C)C)C(=O)N[C@@H](CO)C(=O)N[C@@H](CCCNC(=N)N)C(=O)N[C@@H](CC(C)C)C(N)=O)NC(=O)[C@H](Cc2ccccc2)NC(=O)[C@H](CC(C)C)NC(=O)CNC1=O (H-RICIGLFCQLSRL-NH2; disulfide 3-8)" result_number=1.1
molecule="CC[C@H](C)[C@H](NC(=O)[C@H](CCCCN)NC(=O)[C@@H](NC(=O)[C@@H](N)CCCNC(=N)N)[C@@H](C)CC)C(=O)NCC(=O)N[C@@H](CC(C)C)C(=O)N[C@@H](Cc1ccc2ccccc2c1)C(=O)N[C@@H](CC(=O)O)C(=O)N[C@@H](CCC(N)=O)C(=O)N[C@@H](CC(C)C)C(=O)N[C@@H](CO)C(=O)N[C@@H](CCCNC(=N)N)C(=O)N[C@@H](CC(C)C)C(N)=O (H-RIKIGL[2Nal]DQLSRL-NH2)" result_number=1.3

State recorded Ratio AUC for all listed molecules.
1. CC[C@H](C)[C@H](NC(=O)[C@H](CCCNC(=N)N)NC(=O)[C@@H](NC(=O)[C@@H](N)CCCNC(=N)N)[C@@H](C)CC)C(=O)NCC(=O)N[C@@H](CC(C)C)C(=O)N[C@@H](Cc1ccccc1)C(=O)N[C@@H](CC(=O)O)C(=O)N[C@@H](CCC(N)=O)C(=O)N[C@@H](CC(C)C)C(=O)N[C@@H](Cc1ccc(O)cc1)C(=O)N[C@@H](CCCNC(=N)N)C(=O)N[C@@H](CC(C)C)C(N)=O (H-RIRIGLFDQLYRL-NH2)
2. CC[C@H](C)[C@H](NC(=O)[C@@H](N)CCCNC(=N)N)C(=O)N[C@@H](CCCCN)C(=O)N[C@H](C(=O)N1CCC[C@@H]1C(=O)N[C@@H](CC(C)C)C(=O)N[C@@H](Cc1ccccc1)C(=O)N[C@@H](CC(=O)O)C(=O)N[C@@H](CCC(N)=O)C(=O)N[C@@H](CC(C)C)C(=O)N[C@@H](CO)C(=O)N[C@@H](CCCNC(=N)N)C(=O)N[C@@H](CC(C)C)C(N)=O)[C@@H](C)CC
3. CC[C@H](C)[C@H](NC(=O)[C@H](CCCCN)NC(=O)[C@@H](NC(=O)[C@@H](N)CCCNC(=N)N)[C@@H](C)CC)C(=O)NCC(=O)N[C@@H](CC(C)C)C(=O)N[C@@H](Cc1c[nH]c2ccccc12)C(=O)N[C@@H](CC(=O)O)C(=O)N[C@@H](CCC(N)=O)C(=O)N[C@@H](CC(C)C)C(=O)N[C@@H](CO)C(=O)N[C@@H](CCCNC(=N)N)C(=O)N[C@@H](CC(C)C)C(N)=O (H-RIKIGLWDQLSRL-NH2)

Solution:
1. 1
2. 1
3. 1
